- target.entity: Mitogen-activated protein kinase 1 (Homo sapiens, UniProt P28482)
- Sequence (P28482 whole entry): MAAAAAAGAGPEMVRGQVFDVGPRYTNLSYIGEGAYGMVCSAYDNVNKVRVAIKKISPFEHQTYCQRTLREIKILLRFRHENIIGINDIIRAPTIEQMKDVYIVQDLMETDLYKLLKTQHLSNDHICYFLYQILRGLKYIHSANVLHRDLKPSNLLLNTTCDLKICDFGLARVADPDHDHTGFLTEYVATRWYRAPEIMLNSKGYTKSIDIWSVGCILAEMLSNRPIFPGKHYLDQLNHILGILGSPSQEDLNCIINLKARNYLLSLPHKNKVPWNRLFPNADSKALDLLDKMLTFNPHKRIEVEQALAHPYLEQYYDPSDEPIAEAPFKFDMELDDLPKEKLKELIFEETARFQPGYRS
- experiment.notes: Inhibition of human MAPK1
pKi: −log10 of the molar value.
recorded.metric: pKi

smi	target.entity	assay.value
N=c1scc(-c2ccc(Cl)cc2)n1CC(=O)N1CCN(c2ccccc2)CC1	Mitogen-activated protein kinase 1 (Homo sapiens, UniProt P28482)	6.30
CC(=O)N1CCN(C(=O)Cn2c(-c3ccc(C)cc3)csc2=N)CC1	Mitogen-activated protein kinase 1 (Homo sapiens, UniProt P28482)	5.65
CN1CCN(C(=O)Cn2c(-c3ccc(Cl)cc3)csc2=N)CC1	Mitogen-activated protein kinase 1 (Homo sapiens, UniProt P28482)	5.05
N=c1scc(-c2ccc(Cl)cc2)n1CC(=O)N1CCOCC1	Mitogen-activated protein kinase 1 (Homo sapiens, UniProt P28482)	5.04
Cc1ccc(-c2csc(=N)n2CC(=O)N2CCN(C)CC2)cc1	Mitogen-activated protein kinase 1 (Homo sapiens, UniProt P28482)	5.72
CC(=O)N1CCN(C(=O)Cn2c(-c3ccc(Cl)cc3)csc2=N)CC1	Mitogen-activated protein kinase 1 (Homo sapiens, UniProt P28482)	6.11
N=c1scc(-c2ccccc2)n1CC(=O)N1CCOCC1	Mitogen-activated protein kinase 1 (Homo sapiens, UniProt P28482)	4.86
N=c1scc(-c2ccccc2)n1CC(=O)N1CCN(c2ccccc2)CC1	Mitogen-activated protein kinase 1 (Homo sapiens, UniProt P28482)	5.76
CN1CCN(C(=O)Cn2c(-c3ccccc3)csc2=N)CC1	Mitogen-activated protein kinase 1 (Homo sapiens, UniProt P28482)	5.31
CC(=O)N1CCN(C(=O)Cn2c(-c3ccccc3)csc2=N)CC1	Mitogen-activated protein kinase 1 (Homo sapiens, UniProt P28482)	5.44
Cc1ccc(-c2csc(=N)n2CC(=O)N2CCOCC2)cc1	Mitogen-activated protein kinase 1 (Homo sapiens, UniProt P28482)	5.01
Cc1ccc(-c2csc(=N)n2CC(=O)N2CCN(c3ccccc3)CC2)cc1	Mitogen-activated protein kinase 1 (Homo sapiens, UniProt P28482)	5.68

Where do these numbers come from? They come from ChEMBL document CHEMBL2434944.
